B1: SLC2A12 (parent)
chain: TRIMIGLTLVFFVQITGQPNILFY

# Variants of: B1
# measurement_protocol: protein stability index of a GFP-peptide fusion (GPS, HEK-293T) (PSI 1-6); higher = more stable;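 note: lentivirally expressed fusions sorted by FACS into six bins by GFP to DsRed ratio, PSI derived from sequencing read proportions per bin multiplied by bin number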
# run_conditions: c terminus: a fixed tail appended
assay_metric: protein stability index

| monomer_sequence | assay_metric | recorded_value |
| --- | --- | --- |
| TRIMIGLTLVFFVQITGQPNRLFY [I21R] | protein stability index | 2.73 |
| TRIMIGLTLVFFVQITGQPYILFY [N20Y] | protein stability index | 2.54 |
| TRIMIGLTLVFFVQITLQPNILFY [G17L] | protein stability index | 2.86 |
| TRIMIGLTLVFFVVITGQPNILFY [Q14V] | protein stability index | 3.44 |
| TRIMIGQTLVFFVQITGQPNILFY [L7Q] | protein stability index | 1.72 |
| TRIMIKLTLVFFVQITGQPNILFY [G6K] | protein stability index | 2.19 |
| TRIMIGLTLVFFVQITGQPNILFF [Y24F] | protein stability index | 5.58 |
| TRIMIGLTLVFFVQITGRPNILFY [Q18R] | protein stability index | 3.77 |
| TRIMIGLTLVFFVQITGQPEILFY [N20E] | protein stability index | 2.12 |
| TRIMIELTLVFFVQITGQPNILFY [G6E] | protein stability index | 3.67 |
| TRIMRGLTLVFFVQITGQPNILFY [I5R] | protein stability index | 2.21 |
| TRIMIGLTLVFFVQITGQQNILFY [P19Q] | protein stability index | 2.6 |
| IRIMIGLTLVFFVQITGQPNILFY [T1I] | protein stability index | 3.72 |
| TRIMIGLTLVFFDQITGQPNILFY [V13D] | protein stability index | 2.46 |
| TRIMIGLTLVFFVQITGQPNHLFY [I21H] | protein stability index | 2.49 |
| TRIMIGLTLVFFVQITGQYNILFY [P19Y] | protein stability index | 2.23 |
| TRIMIGLTLVFFVQITGQPVILFY [N20V] | protein stability index | 2.81 |
| TRIPIGLTLVFFVQITGQPNILFY [M4P] | protein stability index | 2.72 |
| TRIMIGLTLVFFVQITGQPNCLFY [I21C] | protein stability index | 2.42 |
| TRIMIGLTLVFFVQITGQPNILMY [F23M] | protein stability index | 2.94 |
| TRIMIGCTLVFFVQITGQPNILFY [L7C] | protein stability index | 2.22 |
| TRGMIGLTLVFFVQITGQPNILFY [I3G] | protein stability index | 2.12 |
| TRIMIGLTLVFFVQITGQPKILFY [N20K] | protein stability index | 4.43 |
| TRIMIGLTLVFFVQITGQINILFY [P19I] | protein stability index | 3.15 |
| TRKMIGLTLVFFVQITGQPNILFY [I3K] | protein stability index | 2.94 |
| TRIMIGLCLVFFVQITGQPNILFY [T8C] | protein stability index | 3.82 |
| TRIMIGLTLVFFVQITGPPNILFY [Q18P] | protein stability index | 3.94 |
| TRIMIGLTLVTFVQITGQPNILFY [F11T] | protein stability index | 3.22 |
| TRIMIGLTLVFFVQITGTPNILFY [Q18T] | protein stability index | 2.7 |
| TRIMIGLTLVFFVQITGQPNIHFY [L22H] | protein stability index | 2.65 |
| TRIMIGLTCVFFVQITGQPNILFY [L9C] | protein stability index | 2.63 |
| TRIMIGLTLVFFVQQTGQPNILFY [I15Q] | protein stability index | 3.39 |
| TRIMIGLTLVFFVQITGQPNMLFY [I21M] | protein stability index | 1.89 |
| TRIMIGLTLVFFVQITGQPNQLFY [I21Q] | protein stability index | 2.1 |
| TRIMIGLTWVFFVQITGQPNILFY [L9W] | protein stability index | 2.24 |
| TRIMIGLTLVFFGQITGQPNILFY [V13G] | protein stability index | 3.16 |
| TRIMIGLTLKFFVQITGQPNILFY [V10K] | protein stability index | 3.44 |
| TRIRIGLTLVFFVQITGQPNILFY [M4R] | protein stability index | 3.83 |
| TRIMIGLTLVFFRQITGQPNILFY [V13R] | protein stability index | 2.87 |
| TRIWIGLTLVFFVQITGQPNILFY [M4W] | protein stability index | 3.96 |
| TRIMIGLTLVFFYQITGQPNILFY [V13Y] | protein stability index | 3.14 |
| TRIMIGLTLVFFVQITGQPNILVY [F23V] | protein stability index | 2.56 |
| TRIMIGLTLVFFVQITGQPNIMFY [L22M] | protein stability index | 2.97 |
| TRIMIGLTLVFFVQITHQPNILFY [G17H] | protein stability index | 2.87 |
| TRIMIGLTLVFFIQITGQPNILFY [V13I] | protein stability index | 3.48 |
| TRIMIGLTLVFFVQITGQPAILFY [N20A] | protein stability index | 3.57 |
| TRIMIGLTLVKFVQITGQPNILFY [F11K] | protein stability index | 2.68 |
| TRIHIGLTLVFFVQITGQPNILFY [M4H] | protein stability index | 2.79 |
| TRIMIGLTLVFFQQITGQPNILFY [V13Q] | protein stability index | 2.33 |
| TRIMIGLHLVFFVQITGQPNILFY [T8H] | protein stability index | 4.12 |
| TRIMIGETLVFFVQITGQPNILFY [L7E] | protein stability index | 2.62 |
| THIMIGLTLVFFVQITGQPNILFY [R2H] | protein stability index | 2.17 |
| TRIMIGLTLVFFVQITGQPNILYY [F23Y] | protein stability index | 3.75 |
| TRIMIGLTLVFFVQITGQPNYLFY [I21Y] | protein stability index | 2.98 |
| TRIMIGLTLVFFVQITGNPNILFY [Q18N] | protein stability index | 2.47 |
| TRIMIGLTLVFFVQITGQPNILTY [F23T] | protein stability index | 2.38 |
| TRIMIGLTLVFFVQITGQPNFLFY [I21F] | protein stability index | 3.31 |
| TRIMIGLTLVFFVQITGYPNILFY [Q18Y] | protein stability index | 3.56 |
| TRIMIGLTLVFFVQRTGQPNILFY [I15R] | protein stability index | 2.93 |
| TRIMIGLTLVFFVQIQGQPNILFY [T16Q] | protein stability index | 3.11 |
| TRIIIGLTLVFFVQITGQPNILFY [M4I] | protein stability index | 1.92 |
| TRIMIGLTLVFFVQIIGQPNILFY [T16I] | protein stability index | 4.14 |
| TRIMIGLTLVFFVQITGKPNILFY [Q18K] | protein stability index | 3.22 |
| TRIMIGLTLVFFVQITGQPTILFY [N20T] | protein stability index | 2.22 |
| TRIMIGLTLVFWVQITGQPNILFY [F12W] | protein stability index | 2.48 |
| TRIMIFLTLVFFVQITGQPNILFY [G6F] | protein stability index | 4.16 |
| TRIMIGLTLGFFVQITGQPNILFY [V10G] | protein stability index | 3.27 |
| TRIMIGLTLVFFVQITGQHNILFY [P19H] | protein stability index | 3.72 |
| TRIMIGLTLVFFVQITYQPNILFY [G17Y] | protein stability index | 3.48 |
| TRIMIGLTLLFFVQITGQPNILFY [V10L] | protein stability index | 2.4 |
| TRIMIGLTLVFFVWITGQPNILFY [Q14W] | protein stability index | 4.35 |
| TRIMIGLTLVFFVQITGQPNIQFY [L22Q] | protein stability index | 1.83 |
| TRIMIGLTMVFFVQITGQPNILFY [L9M] | protein stability index | 2.58 |
| TRIMIGLTLVFFVQITWQPNILFY [G17W] | protein stability index | 2.11 |
| TRIMIGRTLVFFVQITGQPNILFY [L7R] | protein stability index | 2.42 |
| TRIMIGLTLVFFPQITGQPNILFY [V13P] | protein stability index | 3.01 |
| TRINIGLTLVFFVQITGQPNILFY [M4N] | protein stability index | 3.52 |
| TRIMIVLTLVFFVQITGQPNILFY [G6V] | protein stability index | 2.43 |
